Test system: HEK293 cells
Test: Preliminary screening as DNA vectors, GFP transfection of HEK293 cells
Type: cell-based
Settings: amino lipid/DOPE liposome with 75 ng plasmid DNA (psin-EGFP-IRES-Puro); number of GFP-expressing cells divided by total nuclei (Hoechst)
Threshold 4%: Absolute DNA transfection efficiency in HEK293 cells strictly smaller gives Criterion met, otherwise Criterion not met.

# example entries with known answers
molecule	classLabel
CCCCCCCCCCCCCCCCSc1nc(NCCCCCCCCCCCC)nc(NCCCN2CCOCC2)n1 [S16N12 D8]	Criterion met
CCCCCCCCCCSc1nc(NCCCCCC)nc(NCCN2CCOCC2)n1 [S10N6 D2]	Criterion met
CCCCCCCCCCCCCCCNc1nc(NCCN(CC)CC)nc(SCCCCCCCCCC)n1 [S10N15 D7]	Criterion met
CCCCCCCCCCCCCCCSc1nc(NCCCCCCCCCCCCC)nc(NCCN2CCCC2)n1 [S15N13 D3]	Criterion not met
CCCCCCCCCCCCSc1nc(NCCN2CCOCC2)nc(SCCCCCC)n1 [S6S12 D2]	Criterion not met

Request: Given CCCCCCCCCCCCCNc1nc(NCCN2CCN(C)CC2)nc(SCCCCCCCCC)n1 [S9N13 D5] , is recorded Absolute DNA transfection efficiency in HEK293 cells strictly lower than 4%?
Result: Criterion not met

Request: API: query returns whether the molecule falls strictly under 4% in Absolute DNA transfection efficiency in HEK293 cells. Query: CCCCCCCCCCCCSc1nc(NCCCCCC)nc(NCC2CCN(C)CC2)n1 [S12N6 D10]
Result: Criterion met

Request: hey, is Absolute DNA transfection efficiency in HEK293 cells for CCCCCCCCCCCCCCCCCCSc1nc(NCCCCCCCCCCC)nc(NCCN2CCOCC2)n1 [S18N11 D2] lower than 4% or not?
Result: Criterion met

Request: Determine whether this molecule shows Absolute DNA transfection efficiency in HEK293 cells lower than 4% (ties excluded): CCCCCCCCNc1nc(NCCCN(C)C)nc(SCCCCCC)n1 [S6N8 D6]
Result: Criterion met

Request: Decide: Absolute DNA transfection efficiency in HEK293 cells of CCCCCCCCCCCCSc1nc(NCCCCCCCC)nc(NCCN2CCN(C)CC2)n1 [S12N8 D5] strictly below 4%?
Result: Criterion not met

Request: Strictly below 4% in Absolute DNA transfection efficiency in HEK293 cells? CCCCCCCCCSc1nc(NCCN2CCCCC2)nc(SCCCCCCC)n1 [S7S9 D4]
Result: Criterion not met

Request: Does CCCCCCCCCSc1nc(NCCCN2CCOCC2)nc(SCCCCCC)n1 [S6S9 D8] have Absolute DNA transfection efficiency in HEK293 cells strictly under 4%?
Result: Criterion met

Request: Bench note: check whether CCCCCCCCSc1nc(NCCCCCC)nc(NCCN2CCN(C)CC2)n1 [S8N6 D5] shows Absolute DNA transfection efficiency in HEK293 cells below 4%
Result: Criterion not met

Request: Hi there! Is Absolute DNA transfection efficiency in HEK293 cells for CCCCCCCCCCCSc1nc(NCCN2CCCC2)nc(SCCCCCCC)n1 [S7S11 D3] below 4%, do you know?
Result: Criterion not met

Request: Say whether its Absolute DNA transfection efficiency in HEK293 cells is strictly beneath 4%. Entry: CCCCCCCCCCCCSc1nc(NCCCCCCCCC)nc(NCCN2CCOCC2)n1 [S12N9 D2]
Result: Criterion met

Request: Input CCCCCCCCCSc1nc(NCCCN2CCN(C)CC2)nc(SCCCCCCC)n1 [S7S9 D9] ; condition: Absolute DNA transfection efficiency in HEK293 cells strictly below 4%. Does it hold?
Result: Criterion not met

Request: Item CCCCCCCCCCCCCCCCNc1nc(NCCCN(C)C)nc(SCCCCCC)n1 [S6N16 D6] : Absolute DNA transfection efficiency in HEK293 cells beneath 4%, strictly?
Result: Criterion not met

Request: Confirm or reject: Absolute DNA transfection efficiency in HEK293 cells of CCCCCCCCCCCCNc1nc(NCCCN2CCN(C)CC2)nc(SCCCCCC)n1 [S6N12 D9] lies strictly below 4%
Result: Criterion not met

Request: Absolute DNA transfection efficiency in HEK293 cells strictly < 4% for this molecule? CCCCCCCCCCCCCCCCNc1nc(NCC2CCN(C)CC2)nc(SCCCCCCCC)n1 [S8N16 D10]
Result: Criterion not met

Request: # check: Absolute DNA transfection efficiency in HEK293 cells < 4% for CCCCCCCCCCCCCCCNc1nc(NCCCN(C)C)nc(SCCCCCCCCCC)n1 [S10N15 D6]
Result: Criterion not met
